System: passive cutaneous anaphylactic (PCA) reaction
Experiment: Passive cutaneous anaphylactic (PCA) reaction, reagin-allergen combination, in rats
Assay type: in vivo
Settings: Rattus norvegicus, oral dose of 100 mg/kg, thirty minutes before intravenous allergen
Catalogue of inhibition in vivo at 100 mg/kg readings, one per entry.

Use these answered entries as a reference point.
[[record]]
chemical_smiles = "CCCOc1cccc(C(=O)Nc2nnn[nH]2)c1O"
system_under_test = "passive cutaneous anaphylactic (PCA) reaction"
measured_parameter = "inhibition in vivo at 100 mg/kg"
meas_value = "87%"

[[record]]
chemical_smiles = "O=C(Nc1nnn[nH]1)c1cc(C(F)(F)F)ccc1O"
system_under_test = "passive cutaneous anaphylactic (PCA) reaction"
measured_parameter = "inhibition in vivo at 100 mg/kg"
meas_value = "90%"

[[record]]
chemical_smiles = "Cc1cccc(C(=O)Nc2nnn[nH]2)c1O"
system_under_test = "passive cutaneous anaphylactic (PCA) reaction"
measured_parameter = "inhibition in vivo at 100 mg/kg"
meas_value = "82%"


Item O=C(Nc1nnn[nH]1)c1cc([N+](=O)[O-])cc([N+](=O)[O-])c1O has what recorded inhibition in vivo at 100 mg/kg? 80%

Item CC(=O)c1cc(C(=O)Nc2nnn[nH]2)c(O)c([N+](=O)[O-])c1 has what recorded inhibition in vivo at 100 mg/kg? 56%

Item O=C(Nc1nnn[nH]1)c1cccc(Cl)c1O has what recorded inhibition in vivo at 100 mg/kg? 82%
